# Method Summary: NCI Yeast Anticancer Drug Screen. Data for the mlh1 rad18 strain (AID 175)
# Experimental Setup: S. cerevisiae mlh1 rad18 strain growth inhibition; at 50.0 µM
About 79,000 compounds went through this panel and 15% of them were active in at least one assay; those are over-represented in the sample as a whole. Activity calls are given as the source filed them. No stated cut-off is given here; in the data, active means growth inhibition above about 70%; inactive means the rest.
API: response.call in YES for active, NO for inactive

# lookup: test call for COc1ccc2c(c1)C(Br)CCC(Br)C2=O (configuration not stated)
YES

# lookup: test call for CCCCCCCCCCCC(O)CN1CCOCC1 (configuration not stated)
YES

# lookup: test call for COc1ccc(C(CC(=O)c2ccccc2)Sc2ccccc2N)cc1 (configuration not stated)
NO

# lookup: test call for COC(=O)C1C(=O)CC(c2ccccc2)C1c1ccccc1 (configuration not stated)
NO

# lookup: test call for `CN(C)C(=S)/N=c1\ss/c(=N\C(=S)N(C)C)n1-c1ccc(Cl)cc1`
YES

# lookup: test call for `c1ccc(Cn2nnc(-c3ccccc3)c2-c2ccccc2)cc1`
YES

# lookup: test call for CN1CCN(C2=C(Cl)C3(OCCS3)C(F)(F)C2(F)F)CC1 (configuration not stated)
NO

# lookup: test call for COc1ccc(OCC(O)CN2CCN(c3cccc(Cl)c3)CC2)cc1 (configuration not stated)
NO

# lookup: test call for CC1NS(=O)(=O)N(C)C1=O (configuration not stated)
NO

# lookup: test call for `CSc1ccc(C(=O)C(=O)c2ccc(SC)s2)s1`
NO

# lookup: test call for C1=NN(c2ccccc2)C2c3ccccc3CCCC12 (configuration not stated)
YES

# lookup: test call for `C[n+]1c(-c2ccc(/C=N/Nc3n[nH]c(=S)n3/N=C/c3ccc(-c4cn5ccsc5[n+]4C)cc3)cc2)cn2ccsc21`
YES

# lookup: test call for CC(C)CCCC(=O)CCCCCCC(=O)CCN(O)C(=O)C(N)CO (configuration not stated)
YES

# lookup: test call for CCCC(C(=O)OCCN1CCCC1(C)C)C1CCCC1 (configuration not stated)
NO

# lookup: test call for CC1/C(=N\O)CC(c2ccccc2)N(C)C1c1ccccc1 (configuration not stated)
YES

# lookup: test call for CN1C(=O)C(Cl)(C(Cl)(Cl)S(=O)(=O)O)C(=O)c2ccccc21 (configuration not stated)
NO

# lookup: test call for `Cc1cc(N=Nc2ccccc2C)c(N)cc1N`
YES

# lookup: test call for `COC(=O)C1c2cc(C)ccc2-c2ccc(C)cc21`
NO

# lookup: test call for CC(CN(C)C)C(/C=C/c1ccc(Cl)cc1)=N\NC(=O)c1ccccc1 (configuration not stated)
NO

# lookup: test call for `C=C(Br)CN(CC(=C)Br)C(C)=O`
NO

# lookup: test call for `COc1ccc(/C=C/c2ccnc3ccccc23)cc1OC`
YES

# lookup: test call for `Cc1ccc(NN(C)c2ccc(C)cc2)cc1`
NO

# lookup: test call for `CCn1nc(-c2ccccc2)c2c1N(C)c1ccccc1-n1c(-c3ccccc3)nnc1-2`
YES

# lookup: test call for `CCCCCCCCc1cc[n+](C2=C([O-])c3ccccc3C(=O)C2=O)cc1`
YES

# lookup: test call for `Nn1c(-c2ccccc2)nn(C(=O)c2ccccc2)c1=O`
YES

# lookup: test call for Cc1noc(NS(=O)(=O)c2ccc(N=Nc3cc(N=Nc4ccc(S(=O)(=O)Nc5onc(C)c5C)cc4)c4c(NC(=O)C(Cl)Cl)cccc4c3O)cc2)c1C (tested in a mixture with another compound)
NO

# lookup: test call for CCCCN(CCCC)c1ccc2c(c1)C(O)c1ccccc1-2 (configuration not stated)
YES

# lookup: test call for `CC(=O)N1OC2(C)c3ccccc3C1(C)c1ccccc12`
YES

# lookup: test call for `CCN(CC)C(=S)N/N=C/c1cc(OC)ccc1O`
NO

# lookup: test call for `COc1ccc(Cc2nncc3ccccc23)cc1OC`
YES

# lookup: test call for `CN(C)CCC(/C=C/c1ccccc1)=N\Nc1ccc(Cl)cc1`
YES

# lookup: test call for COc1ccc(NC(=O)C(Cc2ccccc2)NC(C)=O)cc1 (configuration not stated)
NO

# lookup: test call for `CC(C)(C)OC(=O)N(CCCCNCc1ccc2ccccc2c1)CCCNCc1ccc2ccccc2c1`
YES

# lookup: test call for `CC/C(=C\c1cccc(OC)c1)c1ccncc1`
YES

# lookup: test call for CCC1([N+](=O)[O-])COC(c2ccc3c(c2)OCO3)OC1 (configuration not stated)
NO

# lookup: test call for `CC(=O)c1sc(Nc2ccc(Cl)c(Cl)c2)nc1C`
YES

# lookup: test call for `Cc1nc(Nc2ccc(Cl)cc2)sc1C(=O)Nc1cccc2c(=O)[nH][nH]c(=O)c12`
YES

# lookup: test call for `Nc1ccc2c(c1)NCCN2`
NO

# lookup: test call for `CC(=O)[O-].O=C(N/N=C/c1ccccc1[O-])c1ccccc1.[Zn+2]`
NO

# lookup: test call for `Nc1ccc2c(SCCCCCCCCSc3c4ccccc4nc4cc(N)ccc34)c3ccccc3nc2c1`
NO

# lookup: test call for `Cc1cccc2nc3nc(Cl)c(Cl)nc3n12`
YES

# lookup: test call for `CCN(CC)CCNc1ccc(C)c2sc3cccc(O)c3c(=O)c12`
YES

###

# Method Summary: NCI Yeast Anticancer Drug Screen. Data for the rad50 strain (AID 155);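 further: 0% = growth of vehicle-only cultures of the same strain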
# Experimental Setup: S. cerevisiae rad50 strain growth inhibition; at 50.0 µM
Compounds without any hit were thinned out: in the full panel of roughly 79,000, 15% have a hit. The source made the active and inactive calls. No stated cut-off is given here; in the data, active means growth inhibition above about 70%; inactive means the rest.
API: response.call in active, inactive

# lookup: test call for `Nc1ccccc1C(=O)NCCc1c[nH]c2ccccc12`
inactive

# lookup: test call for `O=[N+]([O-])c1ccc2c(c1)/C(=C/c1ccc(O)cc1)c1ccccc1-2`
active

# lookup: test call for NC1=NCN(C2OC(COCc3ccccc3)C(OCc3ccccc3)C2OCc2ccccc2)C(=O)N1 (stereo not drawn)
inactive

###

# Method Summary: NCI Yeast Anticancer Drug Screen. Data for the cln2 rad14 strain (AID 165);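 further: 0% = growth equal to vehicle treated cultures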
# Experimental Setup: S. cerevisiae cln2 rad14 strain, at 5.0 µM (retest, dose inferred, filed as 0.5), active compounds read high
Compounds without any hit were thinned out: in the full panel of roughly 79,000, 15% have a hit.
Record form. Attribute: growth inhibition. Fill in for each entry.
Field format: number, assumed %, no unit text.

Supply growth inhibition value. Item: `CC(=O)Oc1ccc(/C=C2\N=C(c3ccccc3)OC2=O)c(OC(C)=O)c1`
2

Supply growth inhibition value. Item: CC12CCC(O)CC1=CCC1C2CCC2(C)/C(=C\C#N)CCC12 (stereo unspecified)
2

Supply growth inhibition value. Item: O=C(CCCN1CCC2(CC1)CC(c1ccccc1)OC2=O)c1ccc(F)cc1 (stereo unspecified)
41

Supply growth inhibition value. Item: `N#Cc1c(-c2ccc(Cl)cc2)c(C#N)c(=O)n(NS(=O)(=O)c2ccccc2)c1S`
46

Supply growth inhibition value. Item: `Fc1ccc(NC2=NCCN=C(Nc3ccc(F)cc3)SS2)cc1`
-9

Supply growth inhibition value. Item: `NC(=S)N/N=C/c1ccc([N+](=O)[O-])o1`
-3

Supply growth inhibition value. Item: CC12CCC3c4cc(O)ccc4CCC3C1CCC2O (stereo unspecified)
-6

Supply growth inhibition value. Item: `C[n+]1c(-c2ccc(/C=N/Nc3n[nH]c(=S)n3/N=C/c3ccc(-c4cn5ccsc5[n+]4C)cc3)cc2)cn2ccsc21`
-6

Supply growth inhibition value. Item: `COc1ccc(/C=C/c2ccnc3ccccc23)cc1OC`
6

Supply growth inhibition value. Item: `Fc1ccc2nncc(SCc3ccccc3)c2c1`
3

Supply growth inhibition value. Item: CCC(c1ccc(O)cc1)C(CC)c1ccc(O)c(CN(C)C)c1 (stereo unspecified)
-3

Supply growth inhibition value. Item: C=C1C(=O)OC(C)(C)C1c1ccc(Cl)c(Cl)c1 (stereo unspecified)
18

Supply growth inhibition value. Item: `COc1ccc(N=Cc2ccccc2O)cc1`
-4

Supply growth inhibition value. Item: `CC1(C)CC[C@]2(C(=O)O)CC[C@]3(C)C(=CC[C@@H]4[C@@]5(C)C[C@H](O)[C@H](O)[C@@](C)(C(=O)O)[C@@H]5CC[C@]43C)[C@@H]2C1`
99

Supply growth inhibition value. Item: `C1=C(C2=C[P+](c3ccccc3)(c3ccccc3)C=C(c3ccccc3)O2)OC(c2ccccc2)=C[P+]1(c1ccccc1)c1ccccc1`
5

Supply growth inhibition value. Item: `Nn1c2ccccc2c2ccccc21`
-54

Supply growth inhibition value. Item: O=C(CC1C(=O)c2ccccc2C1=C1C(=O)c2ccccc2C1=O)c1ccccc1 (stereo unspecified)
19

Supply growth inhibition value. Item: `Cc1ccc(-c2oc(C=Nc3ccccc3)c([N+](=O)[O-])c2-c2ccc(C)cc2)cc1`
36

Supply growth inhibition value. Item: `CCc1n[nH]c(CC)c1CCCCCCOc1ccc(OC)cc1Cl`
-28

Supply growth inhibition value. Item: `CC1=Nc2ccccc2/C1=C\c1c(C)[nH]c2ccccc12`
10

Supply growth inhibition value. Item: `Cn1c2c(c3nc(N)nc(N)c3c1=O)CCc1ccccc1-2`
-2

Supply growth inhibition value. Item: `O=C1C=CC(=O)N1c1ccc(-c2ccc(N3C(=O)C=CC3=O)cc2)cc1`
18

Supply growth inhibition value. Item: `Clc1cc(Cl)c(OCCOCCI)c(Cl)c1`
1

Supply growth inhibition value. Item: `Ic1ccc2c(c1)N(c1ccccc1)c1cc(N=c3ccc4nc5ccc(I)cc5n(-c5ccccc5)c-4c3)ccc1N2`
1

Supply growth inhibition value. Item: `O=C1C(Cl)=C(N2CCN(c3ccccn3)CC2)C(=O)c2ncccc21`
10

Supply growth inhibition value. Item: COc1ccccc1C1C(Cl)C(=O)N1n1cnc2ccccc2c1=O (stereo unspecified)
15

Supply growth inhibition value. Item: O=C1NC(c2ccccc2)(c2cccs2)C(=O)N1C1c2ccccc2Oc2ccccc21 (stereo unspecified)
-7

Supply growth inhibition value. Item: `CC(=O)SC(SC(C)=O)SC(C)=O`
20

Supply growth inhibition value. Item: `O=C(O)CN1CCNCCN(CC(=O)O)CCNCC1`
25

Supply growth inhibition value. Item: `O=c1c(SSc2coc3ccccc3c2=O)coc2ccccc12`
42

Supply growth inhibition value. Item: `Cc1ccc([S@](=O)c2occc2C=O)cc1`
23

Supply growth inhibition value. Item: `NC(=O)Nc1cc(=O)[nH]c(=S)[nH]1`
-1

Supply growth inhibition value. Item: `O=C(N/N=C/c1ccccn1)c1ccccc1[O-].O=C(N/N=C/c1ccccn1)c1ccccc1[O-].[Co+2]`
14

Supply growth inhibition value. Item: `COc1cc(NCC(C#N)C#N)ccc1N=Nc1ccc(Cl)cc1`
-7

Supply growth inhibition value. Item: `Cc1[nH]n(C(N)=S)c(=O)c1N=Nc1ccc([N+](=O)[O-])cc1`
-13

Supply growth inhibition value. Item: `CN(C)C1=NC(N(C)C)=C2C=CC=C12`
-3

Ref: PubChem BioAssay (NCI)
